Molecular target: Human immunodeficiency virus type 1 reverse transcriptase (Human immunodeficiency virus 1, UniProt Q72547, K103N)
Assay: Inhibition of HIV1 reverse transcriptase p66 K103N mutant associated RNA dependent DNA polymerase activity expressed in Escherichia coli assessed as reduction in [3H]dTTP incorporation using poly(rA)/oligo(dT) as template/primer by scintillation counting analysis
QUANTITY_KIND: IC50 (nM)
Respond with the bare value in nM.

Q. For the compound shown here, Cc1cc(C)cc(S(=O)(=O)c2c(C(=O)N[C@H](C)C(=O)NCc3ccco3)[nH]c3ccc(Cl)cc23)c1 , give the reported IC50.
A. 70

Q. Subsequent entry: Cc1cc(C)cc(S(=O)(=O)c2c(C(=O)N[C@@H](C)C(=O)NCc3ccncn3)[nH]c3ccc(Cl)cc23)c1
A. 2860

Q. Subsequent entry: Cc1cc(C)cc(S(=O)(=O)c2c(C(=O)N[C@@H](C)C(=O)N[C@@H](C)c3ccncc3)[nH]c3ccc(Cl)cc23)c1
A. 2590

###

Assay: Cytotoxicity against human MT4 cells assessed as cell viability by MTT assay
Type: cell-based
QUANTITY_KIND: CC50

Q. For the compound shown here, Cc1cc(C)cc(S(=O)(=O)c2c(C(=O)NC(C)c3ccco3)[nH]c3ccc(Cl)cc23)c1 (racemic) , give the reported CC50.
A. > 54.7 µM

Q. Subsequent entry: Cc1cc(C)cc(S(=O)(=O)c2c(C(=O)Nc3ccnc(C#N)c3)[nH]c3ccc(Cl)cc23)c1
A. 6.84 µM

Q. Subsequent entry: Cc1cc(C)cc(S(=O)(=O)c2c(C(=O)NCC(=O)NCc3ccncn3)[nH]c3ccc(Cl)cc23)c1
A. > 48.8 µM

Q. Subsequent entry: Cc1cc(C)cc(S(=O)(=O)c2c(C(=O)NCC(=O)NCc3ccncc3)[nH]c3ccc(Cl)cc23)c1
A. > 48.9 µM

Q. Subsequent entry: Cc1cc(C#N)cc(C)c1Oc1nc(Nc2ccc(C#N)cc2)nc(N)c1Br
A. > 23 µM

Q. Subsequent entry: Cc1cc(C)cc(S(=O)(=O)c2c(C(=O)NC(C)C(=O)NCc3ccncn3)[nH]c3ccc(Cl)cc23)c1 (racemic)
A. 28.1 µM

Q. Subsequent entry: Cc1cc(C)cc(S(=O)(=O)c2c(C(=O)NC(C)c3ccccc3F)[nH]c3ccc(Cl)cc23)c1 (racemic)
A. > 51.5 µM

Q. Subsequent entry: Cc1cn([C@H]2C[C@H](N=[N+]=[N-])[C@@H](CO)O2)c(=O)[nH]c1=O
A. > 30.6 µM

###

System: Human immunodeficiency virus 1
Experiment: Ratio of EC50 for HIV-1 harboring reverse transcriptase Y188L mutant infected in human MT4 cells to EC50 for HIV1 NL4-3 infected in human MT4 cells
Format: functional
Please use met whenever Ratio EC50 is not below 4000, and not met whenever it is.

Q. Please check the record Cc1cc(C)cc(S(=O)(=O)c2c(C(=O)NC(C)C(=O)NCCc3cccs3)[nH]c3ccc(Cl)cc23)c1 (racemic) and state if its Ratio EC50 is at or above 4000.
A. met

Q. Subsequent entry: Cc1cc(C)cc(S(=O)(=O)c2c(C(=O)NCC(=O)NC(C)c3ccccc3F)[nH]c3ccc(Cl)cc23)c1 (racemic)
A. met

Q. Subsequent entry: Cc1cc(C)cc(S(=O)(=O)c2c(C(=O)NCC(=O)NCCn3c(C)cnc3[N+](=O)[O-])[nH]c3ccc(Cl)cc23)c1
A. met

Q. Subsequent entry: Cc1cc(C)cc(S(=O)(=O)c2c(C(=O)NC(C)C(=O)NC(C)c3ccncc3)[nH]c3ccc(Cl)cc23)c1 (racemic)
A. met

Q. Subsequent entry: Cc1cc(C)cc(S(=O)(=O)c2c(C(=O)NCc3cccc(N)c3)[nH]c3ccc(Cl)cc23)c1
A. not met

Q. Subsequent entry: Cc1cc(C)cc(S(=O)(=O)c2c(C(=O)NC(C)C(=O)NCCn3c(C)cnc3[N+](=O)[O-])[nH]c3ccc(Cl)cc23)c1 (racemic)
A. met

Q. Subsequent entry: Cc1cc(C)cc(S(=O)(=O)c2c(C(=O)NC(C)C(=O)NCc3ccccc3F)[nH]c3ccc(Cl)cc23)c1 (racemic)
A. met

Q. Subsequent entry: Cc1cc(C)cc(S(=O)(=O)c2c(C(=O)NCC(=O)NC(C)c3ccncc3)[nH]c3ccc(Cl)cc23)c1 (racemic)
A. not met

###

What CC50 was measured for each of the following?
Assay: Cytotoxicity against human MT4 cells assessed as cell viability by MTT assay
Format: cell-based

Q. For the molecule shown here, O=C1Nc2ccc(Cl)cc2[C@@](C#CC2CC2)(C(F)(F)F)O1 , give the reported CC50.
A. > 15.8 µM

Q. Subsequent entry: Cc1cc(C)cc(S(=O)(=O)c2c(C(=O)Nc3cc(C#N)ccn3)[nH]c3ccc(Cl)cc23)c1
A. > 53.8 µM

Q. Subsequent entry: Cc1cc(C)cc(S(=O)(=O)c2c(C(=O)NC(C)c3cc(F)cc(F)c3)[nH]c3ccc(Cl)cc23)c1 (racemic)
A. > 49.7 µM

###

System: Human immunodeficiency virus 1
Assay: Ratio of EC50 for HIV-1 harboring reverse transcriptase Y188L mutant infected in human MT4 cells to EC50 for HIV1 NL4-3 infected in human MT4 cells
Assay type: functional
QUANTITY_KIND: Ratio EC50

Q. For the molecule shown here, Cc1cc(C)cc(S(=O)(=O)c2c(C(=O)NCC(=O)NCCc3cccs3)[nH]c3ccc(Cl)cc23)c1 , give the reported Ratio EC50.
A. >941

Q. Subsequent entry: Cc1cc(C)cc(S(=O)(=O)c2c(C(=O)NCC(=O)NCc3ccco3)[nH]c3ccc(Cl)cc23)c1
A. >1600

Q. Subsequent entry: Cc1cc(C)cc(S(=O)(=O)c2c(C(=O)NCC(=O)NCc3ccncn3)[nH]c3ccc(Cl)cc23)c1
A. >743

Q. Subsequent entry: Cc1cc(C)cc(S(=O)(=O)c2c(C(=O)NC(C)C(=O)NCc3ccco3)[nH]c3ccc(Cl)cc23)c1 (racemic)
A. 4053

Q. Subsequent entry: Cc1cc(C)cc(S(=O)(=O)c2c(C(=O)NC(C)c3ccccc3F)[nH]c3ccc(Cl)cc23)c1 (racemic)
A. >1384

Q. Subsequent entry: Cc1cc(C)cc(S(=O)(=O)c2c(C(=O)NC(C)C(=O)NCc3ccncc3)[nH]c3ccc(Cl)cc23)c1 (racemic)
A. 4095

Q. Subsequent entry: Cc1cc(C)cc(S(=O)(=O)c2c(C(=O)NC(C)C(=O)NCc3ccncn3)[nH]c3ccc(Cl)cc23)c1 (racemic)
A. >1267
